Provenance of the data: patent US9365502B2

In this section, each of the molecules is paired with its reported melting point.
measured-metric: melting point

| molecule | observed-value |
| --- | --- |
| C[C@@]12CC[C@H](O)C[C@H]1CC[C@@H]1C[C@]3(C)C(C#N)=CC[C@H]3C[C@H]12 (stereo in doubt) | 170 to 172 °C |
| C[C@@]12CC[C@H](O)C[C@H]1CC[C@@H]1C[C@]3(C)C(=O)CC[C@H]3C[C@H]12 | 179 to 181 °C |
| C[C@]12C[C@H]3CC[C@@H]4C[C@@H](O)CC[C@H]4[C@@H]3C[C@@H]1CC[C@@H]2[N+](=O)[O-] | 157 to 159 °C |
| C[C@@]12C[C@@H]3CC[C@@H]4C[C@H](O)CC[C@@H]4[C@H]3C[C@H]1CCC2=O (stereo in doubt) | 174 to 176 °C |
| CC(=O)[C@H]1CC[C@H]2C[C@@H]3[C@H](CC[C@@H]4C[C@@H](O)CC[C@H]43)C[C@@]21C | 131 to 133 °C |
| C[C@@]12CC[C@H](O)C[C@H]1CC[C@@H]1C[C@@]3(C)[C@@H](CC[C@@]34CO4)C[C@H]12 | 138 to 140 °C |
| CC(=O)[C@@H]1CC[C@@H]2C[C@H]3[C@@H](CC[C@H]4C[C@H](O)CC[C@@H]43)C[C@]21C | 128 to 130 °C |
